- measurementTarget: Scribble PDZ1 E814G (human, UniProt Q14160 728-815, E814G)
- Sequence (Q14160 728-815 E814G): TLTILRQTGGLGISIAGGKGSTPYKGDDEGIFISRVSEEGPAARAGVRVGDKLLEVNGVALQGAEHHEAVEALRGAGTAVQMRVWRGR
- protocolSummary: ITC
endpoint: Kd
Reply with the number, then its unit.

*Q* Which measured Kd value corresponds to RSWFETWV [superpeptide (synthetic pan-PDZ binding peptide)] ?
*A* 2360 nM
